For each entry below, report its IC50 value.
# Subject Of Test: androgen receptor (AR) (Homo sapiens, UniProt P10275, T878A)
# Construct: stably transfected eGFP-expressing LNCaP human prostate cancer cells (LN-ARR2PB-eGFP) containing an androgen responsive probasin-derived promoter; endogenous in cells; host or cells: LNCaP (LN-ARR2PB-eGFP)
# Method Description: eGFP cellular AR transcription assay
# Type: cell-based
# Reported Conditions: LN-ARR2PBeGFP LNCaP cells, 0.1 nM R1881, 3 days incubation; read-out: eGFP IC50
Numbers only, in nM.

Worked cases, IC50 given:
>  <Compound>
Cc1cccc2c(-c3ccc4nccnc4n3)c[nH]c12 [Compound 13644]

>  <Subject Of Test>
androgen receptor (AR) (Homo sapiens, UniProt P10275, T878A)

>  <Test Result>
3000

$$$$
>  <Compound>
O=[N+]([O-])c1cccc2c(-c3ccc4ccccc4c3)c[nH]c12 [Compound 13702]

>  <Subject Of Test>
androgen receptor (AR) (Homo sapiens, UniProt P10275, T878A)

>  <Test Result>
210

$$$$

Would you be so kind as to report IC50 for each listed record?
1. O=C(Nc1ccc(-n2cnc3ccccc32)cc1)c1ccco1 [Compound 6054]
2. c1ccc2nc(-c3c[nH]c4ccccc34)ccc2c1 [Compound 13562]

*A*
3400
60

====

# Subject Of Test: androgen receptor (AR) (Homo sapiens, UniProt P10275, T878A)
# Construct: stably transfected eGFP-expressing LNCaP human prostate cancer cells (LN-ARR2PB-eGFP) containing an androgen responsive probasin-derived promoter; endogenous in cells; host or cells: LNCaP (LN-ARR2PB-eGFP)
# Sequence (P10275 1-920 T878A): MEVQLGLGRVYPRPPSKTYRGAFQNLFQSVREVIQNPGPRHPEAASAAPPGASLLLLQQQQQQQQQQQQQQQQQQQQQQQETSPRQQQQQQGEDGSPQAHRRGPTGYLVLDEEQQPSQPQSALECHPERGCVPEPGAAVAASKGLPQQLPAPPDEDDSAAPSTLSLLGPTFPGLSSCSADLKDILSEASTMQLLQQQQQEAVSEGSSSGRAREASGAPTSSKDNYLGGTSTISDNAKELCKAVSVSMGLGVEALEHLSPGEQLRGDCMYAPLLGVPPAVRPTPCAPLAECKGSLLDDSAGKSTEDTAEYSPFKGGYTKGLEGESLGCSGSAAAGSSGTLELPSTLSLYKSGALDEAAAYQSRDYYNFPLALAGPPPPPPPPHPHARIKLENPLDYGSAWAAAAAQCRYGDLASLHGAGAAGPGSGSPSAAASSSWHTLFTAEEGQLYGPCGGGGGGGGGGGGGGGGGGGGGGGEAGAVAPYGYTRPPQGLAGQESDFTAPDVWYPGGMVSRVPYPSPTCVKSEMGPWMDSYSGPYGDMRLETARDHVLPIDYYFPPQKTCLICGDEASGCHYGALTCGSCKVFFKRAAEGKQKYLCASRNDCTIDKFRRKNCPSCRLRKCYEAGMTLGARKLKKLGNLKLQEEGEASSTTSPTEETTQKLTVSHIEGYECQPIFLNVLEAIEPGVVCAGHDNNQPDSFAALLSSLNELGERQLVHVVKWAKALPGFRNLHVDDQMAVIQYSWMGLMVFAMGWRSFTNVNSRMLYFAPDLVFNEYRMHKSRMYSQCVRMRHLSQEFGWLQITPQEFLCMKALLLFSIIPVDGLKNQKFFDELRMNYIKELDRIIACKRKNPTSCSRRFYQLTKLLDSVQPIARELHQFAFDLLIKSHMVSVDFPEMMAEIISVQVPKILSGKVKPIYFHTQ
# Method Description: eGFP cellular AR transcription assay
# Format: cell-based
# Reported Conditions: LN-ARR2PBeGFP LNCaP cells, 0.1 nM R1881, 3 days incubation; read-out: eGFP IC50
Measurement Label: IC50 (µM)
Numbers only, in µM.

Worked cases, IC50 given:
>  <Compound>
c1ccc2c(c1)NC(c1c[nH]c3ccccc13)C21CCCCC1 (stereo not shown)

>  <IC50 [µM]>
0.8

$$$$
>  <Compound>
CC1(C)c2ccccc2NC1c1c[nH]c2ccc(N)cc12 (stereo not shown)

>  <IC50 [µM]>
7.7

$$$$
>  <Compound>
Cc1ccc2[nH]cc(C3Nc4ccccc4C34CCCCC4)c2c1 (stereo not shown)

>  <IC50 [µM]>
3.21

$$$$
>  <Compound>
N#Cc1cc(F)cc2c(-c3ccc4ccc(F)cc4n3)c[nH]c12

>  <IC50 [µM]>
0.149

$$$$
>  <Compound>
c1ccc2c(c1)CCN2c1nc2ccccc2o1

>  <IC50 [µM]>
0.7

$$$$

Would you be so kind as to report IC50 for each listed record?
1. O=C(Nc1n[nH]c2cc(Br)ccc12)c1cc(Br)ccc1O
2. Fc1ccc2ccc(-c3c[nH]c4cc(F)c(F)cc34)nc2c1
3. Clc1ccc(Cl)c2c(-c3ccc4ccccc4n3)c[nH]c12
4. CC1(C)C(c2c[nH]c3ncccc23)=Nc2ccccc21

*A*
1. 7.72
2. 0.6
3. 12.7
4. 0.7

====

For each entry below, report its pIC50 value.
# Subject Of Test: androgen receptor (AR) (Homo sapiens, UniProt P10275, T878A)
# Construct: stably transfected eGFP-expressing LNCaP human prostate cancer cells (LN-ARR2PB-eGFP) containing an androgen responsive probasin-derived promoter; endogenous in cells; host or cells: LNCaP (LN-ARR2PB-eGFP)
# Method Description: eGFP cellular AR transcription assay
# Assay type: cell-based
# Reported Conditions: LN-ARR2PBeGFP LNCaP cells, 0.1 nM R1881, 3 days incubation; read-out: eGFP IC50
Numbers only, as −log10 of the molar value.

>  <Compound>
Fc1ccc(F)c2c(-c3ccc4ccccc4n3)c[nH]c12

>  <Subject Of Test>
androgen receptor (AR) (Homo sapiens, UniProt P10275, T878A)

>  <Test Result>
6.00

$$$$
>  <Compound>
Cc1ccc2ccc(-c3c[nH]c4c(C)cccc34)nc2c1

>  <Subject Of Test>
androgen receptor (AR) (Homo sapiens, UniProt P10275, T878A)

>  <Test Result>
5.55

$$$$
>  <Compound>
CC1(C)c2ccccc2NC1c1c[nH]c2cc(Cl)ccc12 (centres unmarked)

>  <Subject Of Test>
androgen receptor (AR) (Homo sapiens, UniProt P10275, T878A)

>  <Test Result>
6.40

$$$$
>  <Compound>
Oc1ccc2c(C3Nc4ccccc4C34CCCCC4)c[nH]c2c1 (centres unmarked)

>  <Subject Of Test>
androgen receptor (AR) (Homo sapiens, UniProt P10275, T878A)

>  <Test Result>
4.81

$$$$
>  <Compound>
c1ccc2[nH]c(-c3c[nH]c4ccccc34)cc2c1

>  <Subject Of Test>
androgen receptor (AR) (Homo sapiens, UniProt P10275, T878A)

>  <Test Result>
5.68

$$$$

Would you be so kind as to report pIC50 for each listed record?
1. CC1(C)c2cc(Br)ccc2NC1c1c[nH]c2ccc([N+](=O)[O-])cc12 (centres unmarked)
2. CC1(C)c2cc(Br)ccc2NC1c1c[nH]c2ccc(Br)cc12 (centres unmarked)
3. Cn1cc(CCc2ccncc2)c2ccccc21

*A*
1: 5.33; 2: 5.22; 3: 5.60

====

# Subject Of Test: androgen receptor (AR) (Homo sapiens, UniProt P10275, T878A)
# Construct: stably transfected eGFP-expressing LNCaP human prostate cancer cells (LN-ARR2PB-eGFP) containing an androgen responsive probasin-derived promoter; endogenous in cells; host or cells: LNCaP (LN-ARR2PB-eGFP)
# Method Description: eGFP cellular AR transcription assay
# Type: cell-based
# Reported Conditions: LN-ARR2PBeGFP LNCaP cells, 0.1 nM R1881, 3 days incubation; read-out: eGFP IC50
# Method: After 5 days, the cells were plated into a 96-well plate (35,000 cells/well) with 0.1 nM of the synthetic androgen R1881 and increasing concentrations (0-100 μM) of compound. After 5 days, the cells were plated into a 96-well plate (35,000 cells/well) with 0.1 nM R1881 and increasing concentrations (0-100 μM) of compound. In this assay, the expression of eGFP is under the control of an androgen responsive probasin-derived promoter and can quantify AR transcriptional activity.
pIC50: −log10 of the molar value.
If the reported pIC50 equals or exceeds 6, assign 1 (yes). If not, assign 0 (no).

Example cases with answers are listed next.
>  <Compound>
FC(F)(F)c1ccc(-c2c[nH]c3ccccc23)nc1

>  <Label Value>
1 (yes)

$$$$
>  <Compound>
Cc1ccc(F)c2c(-c3ccc4ccccc4n3)c[nH]c12

>  <Label Value>
0 (no)

$$$$
>  <Compound>
Brc1cccc2c(-c3ccc4ccccc4n3)c[nH]c12 [Compound 13621]

>  <Label Value>
1 (yes)

$$$$

*Q* Identify whether the reported pIC50 of the following compound is 6 or greater: Cn1cc(-c2cc3ccccc3n2C)c2ccccc21
*A* 0 (no)
